Would you kindly list Percent Effect for each of these compounds?
# Tested on: Mycobacterium tuberculosis
# measurement-protocol: Cornell - Phenotypic assay to identify agents that inhibit growth of Mycobacterium tuberculosis
# Format: functional
# Design: scale not given: direction of the effect not stated beside the values
# condition: 10 mM as filed; unlikely as a test dose
Hit rate of the full screen: of about 53,000 compounds, about 900 (1.7%) showed an effect of 50% or more. For the sample, strong results were picked, then their nearest neighbours and some compounds at random.
Numbers only, in %.

CCC(O)CN1CCN(C(=O)c2ccc(Cn3cccc3)cc2)CC1 (stereo unspecified) :: -35.22
O=C(O)C(F)(F)F.O=C1[C@H]2CN(CC3CC3)C[C@H]2CN1Cc1cccc(F)c1 :: 9.244
Cc1c[nH]nc1C1CCCN1Cc1ccncc1 (stereo unspecified) :: 14.55
COc1cccc(C(=O)Nc2n[nH]c(C3CCCO3)n2)c1 (stereo unspecified) :: 12.47
COC(=O)Cn1c(=O)nc2n1C(=O)N(c1cccc(C)c1)C2 :: 2.841

Pending compound:
// Percent Effect value for Cc1cccnc1CCNCC1(O)CCCN(CC2CCCCC2)C1=O (stereo unspecified) : -24.48

* * *

# Test system: Mycobacterium tuberculosis
# measurement-protocol: Cornell - Phenotypic assay to identify agents that inhibit growth of Mycobacterium tuberculosis
# Format: functional
# Set-up: scale not given: direction of the effect not stated beside the values
# condition: 10 mM as filed; unlikely as a test dose
About 900 (1.7%) of roughly 53,000 compounds showed an effect of 50% or more. For the sample, strong results were picked, then their nearest neighbours and some compounds at random.
True if Percent Effect is below 10%. False if not; exact matches included in False.

Field: example entries. Status: answers known.
O=C(O)C(F)(F)F.O=C(O)C(F)(F)F.O=C(O)c1c(-c2cccnc2)ncc2c1CCN(Cc1ccccn1)C2 :: True
Cc1nn(CCO)c(C)c1CNC1CCCCc2ccccc21 (centres undefined) :: False

# input I wonder whether CCc1noc(C(C)N2CCN(c3ccc(C#N)cn3)CC2)n1 (centres undefined) has Percent Effect below 10%. Can you tell?
# output True

# input Is Percent Effect of Cc1c(Cl)cccc1NC(=O)N1CCN(Cc2ccccn2)CC1 strictly below 10%?
# output False

# input Is 10% strictly greater than the compound's reported Percent Effect? compound: COc1ccc(Cl)cc1CCNC(=O)NCc1ccncc1
# output False

# input Does the reported Percent Effect of the following compound sit strictly below 10%? CCCn1ncc(-c2ccnc(NC3CCCc4ccccc43)n2)c1C (centres undefined)
# output False

# input Would you kindly verify if Percent Effect of CC(=O)N1CCN([C@@H]2CN(C(=O)c3ccccc3C)C[C@H]2O)CC1 is strictly less than 10%?
# output True

# input Confirm or reject: Percent Effect of c1csc(N2CCN(c3ncnc4sccc34)CC2)n1 lies strictly below 10%
# output True

# input Record Cc1ccccc1C(=O)N1C[C@@H](O)[C@H](N2CCOCC2)C1 : is its Percent Effect strictly below 10%?
# output False

# input Lab note: confirm whether the reported Percent Effect for this compound is below 10%, equality not counting. compound: COc1cccc(CN2CCCC(Cn3nc(C)nc3C)C2)c1 (centres undefined)
# output False

# input Criterion: Percent Effect strictly below 10%. Is it met by OCCNc1nccc(-c2cn3nccc3nc2C2CCCCC2)n1 ?
# output False

# input Percent Effect under 10%? Item: COc1ccc(Cl)cc1CCNC(=O)NCc1noc(C)n1
# output False

# input Lab note: confirm whether the reported Percent Effect for this compound is below 10%, equality not counting. compound: c1cc(N2CCOCC(Cc3ccc4[nH]ccc4c3)C2)ncn1 (centres undefined)
# output True

# input Lab note: Percent Effect threshold 10%. Does this compound come in strictly under it? CCCn1ncc(-c2ccnc(NC3CC(C)(C)NC(C)(C)C3)n2)c1C
# output True

# input Problem: For the compound Cc1cc(-n2cnnn2)n2ncnc2n1 , is Percent Effect under 10%?
# output True

# input Decide: Percent Effect of Cn1ncc2c1NC(=O)CC2c1ccc(Cl)cc1Cl (centres undefined) strictly below 10%?
# output False

# input Dear reviewer, please state whether Nc1cc(N2CCOCC(Cc3ccc4[nH]ccc4c3)C2)ncn1 (centres undefined) has Percent Effect strictly beneath 10%.
# output False

# input Threshold test, Percent Effect < 10%: COc1ncc(C(=O)NCc2ccc(Br)cc2)cn1
# output False

# input Regarding Cc1ccc(-c2nc(CCNCc3ccncc3)co2)cc1 , kindly confirm whether its Percent Effect is beneath 10%.
# output False

# input Please indicate whether the reported Percent Effect of COc1ccc(-c2nc(CCNCc3ccncc3)co2)cc1 is strictly below 10%.
# output False

# input Strictly below 10% in Percent Effect? CC(C)N(Cc1ccc(Cl)c(Cl)c1)C(=O)CCn1cncn1
# output False

# input Answer whether the compound O=C1CN(C(=O)C2CN(c3ccccc3)CCO2)CCN1 (centres undefined) has Percent Effect strictly less than 10%
# output False

# input Regarding Cc1cc(N2CCC(Cc3ccccc3)CC2)ncn1 , kindly confirm whether its Percent Effect is beneath 10%.
# output False

# input # strict comparison: is reported Percent Effect < 10%? input = CCCn1cc(-c2ccnc(NC3CCc4ccccc4C3)n2)c(C)n1 (centres undefined)
# output True

meta.source: ChEMBL document CHEMBL3988442
